EXPERIMENTAL DETAILS: NCI Yeast Anticancer Drug Screen. Data for the sgs1 mgt1 strain (AID 161);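 further: 0% = growth of cultures given vehicle only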
EXPERIMENTAL PARAMETERS: S. cerevisiae sgs1 mgt1 strain, at 5.0 µM (retest, dose inferred, filed as 0.5), stronger effect = higher value
This is part of a sample that, as a whole, favours compounds with a hit. Of some 79,000 tested, about 15% had one in any assay.
growth inhibition reference
Could you give me the number in %? Just the number is fine.

Solved entries (count: 2):
1) C=C1C(=O)O[C@@H]2C[C@]3(C)CC[C@]4(C)[C@H](CC[C@@H]5[C@@]6(C)CCC(=O)C(C)(C)[C@@H]6CC[C@]54C)[C@H]3[C@H]12 = 5
2) CCc1cccc(C)c1NC(=O)C(=O)CC(=O)c1ccccc1Cl = -4

input: What measured growth inhibition goes with `Cc1ccc(C(C)(C)c2ccc(C(=O)O)cc2)cc1` ?
output: -3

input: Same question for `CN(C)c1nc(N(C)C)nc([N+](C)(C)C)n1` please.
output: -1

input: What do you have for `CC1=Nc2ccccc2/C1=C\c1c(C)[nH]c2ccccc12` ?
output: 38
